test: in vitro; settings: human, hela cells, % viability
In this section we review reported viability at 28.5 h, 10 µM values for a set of molecules.

| molecule | viability at 28.5 h, 10 µM, % |
| --- | --- |
| Cc1cc(C)c(C)c(S(=O)(=O)NCCOCCO)c1C | 88.6 |
| COc1ccc(CC(=O)N2CCC(c3cccc(Cc4ccccc4C)n3)CC2)cc1 | 93.5 |
| NCc1ccc(CN(Cc2ccc(-c3ccccc3)cc2)C(=O)Nc2c(F)cccc2F)cc1 [CBK046115C] | 104 |
| CC1=NC2c3ccsc3C=CC2S1 (centres unmarked) | 112 |
| CC1=CCCN(C(=O)C23CCOCC2CN(c2ncccn2)C3)C1 (centres unmarked) | 101 |
